Assignment: determine reported SPOT peptide array binding signal intensity for the given binders.
assayedSystem: CaNbp2
testDescription: SPOT peptide array binding signal intensity (averaged, normalized) (arbitrary units (background-subtracted, floor 0; scale differs between SH3 domains)); higher = stronger binding of the SH3 domain to the peptide

Consider the binder "RRRRRPHRIERPLSN" and give its measured SPOT peptide array binding signal intensity.
394

Given the binder "RVTRKRPREPKSTND" , what is its reported SPOT peptide array binding signal intensity?
266

SPOT peptide array binding signal intensity lookup needed for "NHSRSLFSLPGNQQS" , thanks.
358

Fill blank: measured SPOT peptide array binding signal intensity of the binder "NNNKMRPHLPPLSSG" is ____.
1410

For the binder "LLRRTIPKRPFYHVL" , what SPOT peptide array binding signal intensity is on record?
262

What does the data say about its SPOT peptide array binding signal intensity? Entry: "KLSRGRYGLPLSSRP"
110

Entry under review: "TKPTPPPKPSHLKPK" . Reported SPOT peptide array binding signal intensity?
≤ 0
